Test system: 931267-113-T-J1-PDC multicell spheroid viability;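 further: viability read 7 days after compound addition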
Assay: Anticancer human tumor 931267-113-T-J1-PDC patient-derived colon adenocarcinoma cell line growth inhibition [PI3K]; active means viability on the fitted dose curve at most 10% of control; inactive means the rest
Settings: second compound 0.00316 µM; first compound 10 µM
Please answer using one outcome listed in active, inactive

CC(C)NCC(C(=O)N1CCN(c2ncnc3c2C(C)CC3O)CC1)c1ccc(Cl)cc1 (stereo unspecified) + COc1c(OCCCN2CCOCC2)ccc2c3n(c(=NC(=O)c4cnc(N)nc4)nc12)CCN3 : inactive
C=CC(=O)N1CCN(c2nc(=O)n(-c3c(C)ccnc3C(C)C)c3nc(-c4c(O)cccc4F)c(F)cc23)C(C)C1 (stereo unspecified) + COc1c(OCCCN2CCOCC2)ccc2c3n(c(=NC(=O)c4cnc(N)nc4)nc12)CCN3 : inactive
CCCS(=O)(=O)Nc1ccc(F)c(C(=O)c2c[nH]c3ncc(-c4ccc(Cl)cc4)cc23)c1F + CC(Nc1ccc2c(c1)OCCn1cc(N3C(=O)OCC3C(F)F)nc1-2)C(N)=O : active
Cn1nccc1Nc1nccc(-c2ccn(C(CO)c3ccc(Cl)c(F)c3)c(=O)c2)n1 (stereo unspecified) + COc1c(OCCCN2CCOCC2)ccc2c3n(c(=NC(=O)c4cnc(N)nc4)nc12)CCN3 : inactive
CC1(C)CCC(Nc2ncc(C(F)(F)F)c(-c3c[nH]c4c(P(C)(C)=O)c(C#N)ccc34)n2)CN1 (stereo unspecified) + CC(Nc1ccc2c(c1)OCCn1cc(N3C(=O)OCC3C(F)F)nc1-2)C(N)=O : inactive
CCCS(=O)(=O)Nc1ccc(F)c(C(=O)c2c[nH]c3ncc(-c4ccc(Cl)cc4)cc23)c1F + COc1c(OCCCN2CCOCC2)ccc2c3n(c(=NC(=O)c4cnc(N)nc4)nc12)CCN3 : active
CC1(C)CCC(CN2CCN(c3ccc(C(=O)NS(=O)(=O)c4ccc(NCC5CCOCC5)c([N+](=O)[O-])c4)c(Oc4cnc5[nH]ccc5c4)c3)CC2)=C(c2ccc(Cl)cc2)C1 + COc1c(OCCCN2CCOCC2)ccc2c3n(c(=NC(=O)c4cnc(N)nc4)nc12)CCN3 : inactive
Cn1ncc(Cl)c1-c1cc(C(=O)NC(CN)Cc2cccc(F)c2)sc1Cl (stereo unspecified) + CC(Nc1ccc2c(c1)OCCn1cc(N3C(=O)OCC3C(F)F)nc1-2)C(N)=O : inactive

q: Call for entry C#Cc1c(F)ccc2cc(O)cc(-c3ncc4c(N5CC6CCC(C5)N6)nc(OCC56CCCN5CC(F)C6)nc4c3F)c12 (stereo unspecified) + COc1c(OCCCN2CCOCC2)ccc2c3n(c(=NC(=O)c4cnc(N)nc4)nc12)CCN3 :
a: inactive

q: # fetch the recorded call for CC1(C)CCC(Nc2ncc(C(F)(F)F)c(-c3c[nH]c4c(P(C)(C)=O)c(C#N)ccc34)n2)CN1 (stereo unspecified) + COc1c(OCCCN2CCOCC2)ccc2c3n(c(=NC(=O)c4cnc(N)nc4)nc12)CCN3 here
a: inactive

q: Record request — test call for CNC(=O)c1ccc(N2C(=S)N(c3ccc(C#N)c(C(F)(F)F)c3)C(=O)C2(C)C)cc1F + CC(Nc1ccc2c(c1)OCCn1cc(N3C(=O)OCC3C(F)F)nc1-2)C(N)=O
a: inactive
